- System: PPARa:RXRa (NR concentration 270 nM, RXRa partner concentration 90 nM)
- ASSAY_COMMENT: PBM binding z-score (relative to random genomic background probes); higher = stronger binding; sequences stand for … in GC…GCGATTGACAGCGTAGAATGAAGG
Reported PBM binding z-score values for a set of sequences
OUTCOME_MEASURE: PBM binding z-score

| POLYMER_SEQUENCE | TARGET_OF_ASSAY | OUTCOME_MEASURE | RESULT |
| --- | --- | --- | --- |
| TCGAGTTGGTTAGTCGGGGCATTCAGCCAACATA | PPARa:RXRa (NR concentration 270 nM, RXRa partner concentration 90 nM) | PBM binding z-score | 0.218 |
| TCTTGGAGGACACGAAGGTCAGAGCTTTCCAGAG | PPARa:RXRa (NR concentration 270 nM, RXRa partner concentration 90 nM) | PBM binding z-score | 2.1 |
| GCTTGTACATCAAGGTTAAGAAAGACTAAGCTAA | PPARa:RXRa (NR concentration 270 nM, RXRa partner concentration 90 nM) | PBM binding z-score | 0.96 |
| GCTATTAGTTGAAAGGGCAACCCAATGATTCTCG | PPARa:RXRa (NR concentration 270 nM, RXRa partner concentration 90 nM) | PBM binding z-score | 2.4 |
| CCTACTGGGCCAAGGTTATTGATCAGTCAAAGCA | PPARa:RXRa (NR concentration 270 nM, RXRa partner concentration 90 nM) | PBM binding z-score | 1.78 |
| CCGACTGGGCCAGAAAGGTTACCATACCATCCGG | PPARa:RXRa (NR concentration 270 nM, RXRa partner concentration 90 nM) | PBM binding z-score | 1.88 |
| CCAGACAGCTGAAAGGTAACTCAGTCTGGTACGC | PPARa:RXRa (NR concentration 270 nM, RXRa partner concentration 90 nM) | PBM binding z-score | 0.193 |
| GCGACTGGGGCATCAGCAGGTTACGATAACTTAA | PPARa:RXRa (NR concentration 270 nM, RXRa partner concentration 90 nM) | PBM binding z-score | 1.38 |
| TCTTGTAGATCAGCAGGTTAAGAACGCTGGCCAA | PPARa:RXRa (NR concentration 270 nM, RXRa partner concentration 90 nM) | PBM binding z-score | 0.745 |
| TCTTGAAGATCAATAGAGGTTAAGAAAGTGCGCT | PPARa:RXRa (NR concentration 270 nM, RXRa partner concentration 90 nM) | PBM binding z-score | 1.79 |
| GCTGCTAGGTCAGTTTGGTCAGCTAACGGGTACG | PPARa:RXRa (NR concentration 270 nM, RXRa partner concentration 90 nM) | PBM binding z-score | 0.943 |
| GCGACTGGAGCAAAGCAGGTTACCATAAGGTTGG | PPARa:RXRa (NR concentration 270 nM, RXRa partner concentration 90 nM) | PBM binding z-score | 0.27 |
| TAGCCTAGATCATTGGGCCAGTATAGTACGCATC | PPARa:RXRa (NR concentration 270 nM, RXRa partner concentration 90 nM) | PBM binding z-score | -0.513 |
| ACTAGAAGGCCAAGTTTGGGTCACTCAAACAAAG | PPARa:RXRa (NR concentration 270 nM, RXRa partner concentration 90 nM) | PBM binding z-score | 1.52 |
| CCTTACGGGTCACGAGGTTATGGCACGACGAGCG | PPARa:RXRa (NR concentration 270 nM, RXRa partner concentration 90 nM) | PBM binding z-score | 5.94 |
| ACAGTCAGGTGATGAAGGTAACTCAGGCTATCAT | PPARa:RXRa (NR concentration 270 nM, RXRa partner concentration 90 nM) | PBM binding z-score | 0.116 |
| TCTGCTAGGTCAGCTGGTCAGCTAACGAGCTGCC | PPARa:RXRa (NR concentration 270 nM, RXRa partner concentration 90 nM) | PBM binding z-score | 1.95 |
| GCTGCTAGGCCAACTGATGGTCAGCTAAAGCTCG | PPARa:RXRa (NR concentration 270 nM, RXRa partner concentration 90 nM) | PBM binding z-score | -1.2 |
| AATACAGGGTCATCGTAGGCCAGTGTACGCACAG | PPARa:RXRa (NR concentration 270 nM, RXRa partner concentration 90 nM) | PBM binding z-score | 5.62 |
| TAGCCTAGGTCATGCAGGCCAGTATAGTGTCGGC | PPARa:RXRa (NR concentration 270 nM, RXRa partner concentration 90 nM) | PBM binding z-score | 3.38 |
| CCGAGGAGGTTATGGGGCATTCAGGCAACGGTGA | PPARa:RXRa (NR concentration 270 nM, RXRa partner concentration 90 nM) | PBM binding z-score | 2.84 |
| ACTATTAGTTGAGAAGAGGGCAACCGATAGGTTG | PPARa:RXRa (NR concentration 270 nM, RXRa partner concentration 90 nM) | PBM binding z-score | 0.44 |
| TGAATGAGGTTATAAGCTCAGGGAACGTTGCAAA | PPARa:RXRa (NR concentration 270 nM, RXRa partner concentration 90 nM) | PBM binding z-score | 2.67 |
| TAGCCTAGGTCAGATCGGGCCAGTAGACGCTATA | PPARa:RXRa (NR concentration 270 nM, RXRa partner concentration 90 nM) | PBM binding z-score | 1.45 |
| TCTCGGAGGACACGAAGGACAGAGCTTTCCAGAG | PPARa:RXRa (NR concentration 270 nM, RXRa partner concentration 90 nM) | PBM binding z-score | -0.0833 |
| AGAATGAGGTTAAGATCCGGGAAACAGAATACAT | PPARa:RXRa (NR concentration 270 nM, RXRa partner concentration 90 nM) | PBM binding z-score | 3.26 |
| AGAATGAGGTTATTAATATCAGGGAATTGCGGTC | PPARa:RXRa (NR concentration 270 nM, RXRa partner concentration 90 nM) | PBM binding z-score | 2.47 |
| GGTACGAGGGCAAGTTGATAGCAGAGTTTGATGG | PPARa:RXRa (NR concentration 270 nM, RXRa partner concentration 90 nM) | PBM binding z-score | 1.02 |
| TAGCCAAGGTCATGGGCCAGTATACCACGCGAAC | PPARa:RXRa (NR concentration 270 nM, RXRa partner concentration 90 nM) | PBM binding z-score | 6.11 |
| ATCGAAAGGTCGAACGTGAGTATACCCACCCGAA | PPARa:RXRa (NR concentration 270 nM, RXRa partner concentration 90 nM) | PBM binding z-score | 4.39 |
| CCGACTGGGGCACAAAGGTTACCATACCATCCGG | PPARa:RXRa (NR concentration 270 nM, RXRa partner concentration 90 nM) | PBM binding z-score | 3.24 |
| CGAACGAGGGCATGAGCTGATAGCAAATGCCGAT | PPARa:RXRa (NR concentration 270 nM, RXRa partner concentration 90 nM) | PBM binding z-score | 1.39 |
| ATCTCTAGGTAAAGATAGTTCAGGGAATGCAAAT | PPARa:RXRa (NR concentration 270 nM, RXRa partner concentration 90 nM) | PBM binding z-score | 1.06 |
| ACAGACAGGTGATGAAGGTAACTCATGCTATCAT | PPARa:RXRa (NR concentration 270 nM, RXRa partner concentration 90 nM) | PBM binding z-score | 0.0179 |
| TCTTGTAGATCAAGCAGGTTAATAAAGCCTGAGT | PPARa:RXRa (NR concentration 270 nM, RXRa partner concentration 90 nM) | PBM binding z-score | 0.639 |
| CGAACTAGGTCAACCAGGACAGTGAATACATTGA | PPARa:RXRa (NR concentration 270 nM, RXRa partner concentration 90 nM) | PBM binding z-score | 4.98 |
| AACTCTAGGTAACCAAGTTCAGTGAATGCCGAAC | PPARa:RXRa (NR concentration 270 nM, RXRa partner concentration 90 nM) | PBM binding z-score | 0.878 |
| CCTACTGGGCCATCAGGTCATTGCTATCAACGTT | PPARa:RXRa (NR concentration 270 nM, RXRa partner concentration 90 nM) | PBM binding z-score | 2.83 |
| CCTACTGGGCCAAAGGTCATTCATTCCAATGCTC | PPARa:RXRa (NR concentration 270 nM, RXRa partner concentration 90 nM) | PBM binding z-score | 6.7 |
| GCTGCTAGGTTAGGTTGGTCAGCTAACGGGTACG | PPARa:RXRa (NR concentration 270 nM, RXRa partner concentration 90 nM) | PBM binding z-score | -0.376 |
| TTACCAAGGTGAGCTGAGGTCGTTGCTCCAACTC | PPARa:RXRa (NR concentration 270 nM, RXRa partner concentration 90 nM) | PBM binding z-score | 1.42 |
| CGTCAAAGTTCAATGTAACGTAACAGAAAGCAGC | PPARa:RXRa (NR concentration 270 nM, RXRa partner concentration 90 nM) | PBM binding z-score | 4.08 |
| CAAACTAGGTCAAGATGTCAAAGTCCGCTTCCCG | PPARa:RXRa (NR concentration 270 nM, RXRa partner concentration 90 nM) | PBM binding z-score | 4.98 |
| CGAACTAAGTCAAGGACAGTGAATCTCCGCACGC | PPARa:RXRa (NR concentration 270 nM, RXRa partner concentration 90 nM) | PBM binding z-score | -0.228 |
| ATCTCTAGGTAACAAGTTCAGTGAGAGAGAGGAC | PPARa:RXRa (NR concentration 270 nM, RXRa partner concentration 90 nM) | PBM binding z-score | 1.54 |
